Cited source: paper PMC12416549

Target: T1, TNFR1 (Homo sapiens, UniProt P19438)
T1 chain: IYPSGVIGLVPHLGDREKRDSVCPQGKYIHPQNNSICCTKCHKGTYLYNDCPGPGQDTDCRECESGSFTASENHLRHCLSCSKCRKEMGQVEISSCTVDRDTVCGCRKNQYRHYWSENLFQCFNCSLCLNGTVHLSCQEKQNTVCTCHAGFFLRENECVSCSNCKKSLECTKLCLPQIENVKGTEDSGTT
Test: yeast display SC50
Exercise: for every item that follows, state its recorded apparent Kd (screen).

Solved entries (count: 3):
P32Q (designed binder) MTLQELLREEALRRAEAEAFRYALELLAEKFQEQKEYLLDLAEEIESQIRSLSGVDVEDVRKFLDKEWAWVKELLAEHPAELAEVEAARAARLAELRAEVEAKVAA :: 0.593 nM
D65F (designed binder) MTLQELLREEALRRAEAEAFRYALELLAEKFPEQKEYLLDLAEEIESQIRSLSGVDVEDVRKFLFKEWAWVKELLAEHPAELAEVEAARAARLAELRAEVEAKVAA :: 0.653 nM
E84M (designed binder) MTLQELLREEALRRAEAEAFRYALELLAEKFPEQKEYLLDLAEEIESQIRSLSGVDVEDVRKFLDKEWAWVKELLAEHPAELAMVEAARAARLAELRAEVEAKVAA :: 0.956 nM

Next up:
## Task Dear colleague, I am looking for the recorded apparent Kd (screen) of the following binder: A23S (designed binder) MTLQELLREEALRRAEAEAFRYSLELLAEKFPEQKEYLLDLAEEIESQIRSLSGVDVEDVRKFLDKEWAWVKELLAEHPAELAEVEAARAARLAELRAEVEAKVAA
## Result 0.446 nM
